- Assay procedure: Non-compartmental plasma pharmacokinetics of sertraline and N-desmethylsertraline in HIV-infected and uninfected youth (IMPAACT P1080)
- Run conditions: human, in vivo, po, CL/F, PI/r cohort n = 12; non-compartmental apparent oral clearance; median (interquartile range)
Assay endpoint: CL/F (mL/min/kg)
One number for each entry, in mL/min/kg.

Task item: # CL/F lookup, item CN[C@H]1CC[C@@H](c2ccc(Cl)c(Cl)c2)c2ccccc21 [Sertraline]
Reply: 26.7

====

- Assay procedure: Non-compartmental plasma pharmacokinetics of sertraline and N-desmethylsertraline in HIV-infected and uninfected youth (IMPAACT P1080)
- Run conditions: human, in vivo, 100 mg, Norm-C24, PI/r cohort n = 12; normalized to 100 mg once daily and 70 kg; median (interquartile range)
Assay endpoint: concentration at 24 h (ng/mL)
One number for each entry, in ng/mL.

Task item: Sample CN[C@H]1CC[C@@H](c2ccc(Cl)c(Cl)c2)c2ccccc21 [Sertraline] — what was its concentration at 24 h?
Reply: 20.1

====

- Assay procedure: Non-compartmental plasma pharmacokinetics of sertraline and N-desmethylsertraline in HIV-infected and uninfected youth (IMPAACT P1080)
- Run conditions: human, in vivo
Assay endpoint: Tmax (h)
Numbers only, in h.

Task item: Tell me the measured Tmax of CN[C@H]1CC[C@@H](c2ccc(Cl)c(Cl)c2)c2ccccc21 , please.
Reply: 4

====

- Assay procedure: Non-compartmental plasma pharmacokinetics of sertraline and N-desmethylsertraline in HIV-infected and uninfected youth (IMPAACT P1080)
- Run conditions: human, in vivo, AUC0−24, EFV cohort n = 3; plasma, steady state; median (minimum, maximum)
Assay endpoint: AUC(0-t) (ng·h/mL)
Numbers only, in ng·h/mL.

Task item: What value of AUC(0-t) has been recorded for this entry: CN[C@H]1CC[C@@H](c2ccc(Cl)c(Cl)c2)c2ccccc21
Reply: 145

====

- Assay procedure: Non-compartmental plasma pharmacokinetics of sertraline and N-desmethylsertraline in HIV-infected and uninfected youth (IMPAACT P1080)
- Run conditions: human, in vivo, AUC0−24, PI/r cohort n = 12; plasma, steady state; median (interquartile range)
Assay endpoint: AUC(0-t) (ng·h/mL)
Numbers only, in ng·h/mL.

Task item: Data request, read-out AUC(0-t), for CN[C@H]1CC[C@@H](c2ccc(Cl)c(Cl)c2)c2ccccc21
Reply: 486

====

- Assay procedure: Non-compartmental plasma pharmacokinetics of sertraline and N-desmethylsertraline in HIV-infected and uninfected youth (IMPAACT P1080)
- Run conditions: human, in vivo, AUC0−24, HIV(-) cohort n = 16; plasma, steady state; median (interquartile range)
Assay endpoint: AUC(0-t) (ng·h/mL)
One number for each entry, in ng·h/mL.

Task item: Form field: reported AUC(0-t) of CN[C@H]1CC[C@@H](c2ccc(Cl)c(Cl)c2)c2ccccc21
Reply: 652

====

- Assay procedure: Non-compartmental plasma pharmacokinetics of sertraline and N-desmethylsertraline in HIV-infected and uninfected youth (IMPAACT P1080)
- Run conditions: human, in vivo, 100 mg, Norm-AUC0−24, EFV cohort n = 3; normalized to a 100 mg once daily dose and a weight of 70 kg; median (minimum, maximum)
Assay endpoint: AUC(0-t) (ng·h/mL)
One number for each entry, in ng·h/mL.

Task item: For CN[C@H]1CC[C@@H](c2ccc(Cl)c(Cl)c2)c2ccccc21 [Sertraline] , what is its reported AUC(0-t)?
Reply: 473
